# normalized RNA/DNA level without ligand (log10) per entry
B1: library; a variant is named by its letters at N, in order (parent)
chain: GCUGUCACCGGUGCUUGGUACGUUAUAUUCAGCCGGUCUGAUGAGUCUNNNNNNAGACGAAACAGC

Variants of: B1
Assay: normalized RNA/DNA level without ligand (relative to sTRSVctl = 100) (log10 (% of sTRSVctl)); HEK293T overexpressing SLC46A1; higher = less ribozyme self-cleavage, higher mRNA level
Settings: without (6R,S)-folinic acid; ligand present: no
Enter a number only.

Consider the reported normalized RNA/DNA level without ligand (log10) for these variants:
sequence_variant=CAGUUC quantitative_result=2.03
sequence_variant=GUCACU quantitative_result=2.02
sequence_variant=CGCCAC quantitative_result=2
sequence_variant=GGUGGA quantitative_result=2.05

Q) # get_value(readout='normalized RNA/DNA level without ligand (log10)', item= UGCAUU )
A) 1.99

Q) Dear colleague, I am looking for the recorded normalized RNA/DNA level without ligand (log10) of the following variant: GACUCA
A) 2

Q) Param item = GCUGGU ; retrieve measured normalized RNA/DNA level without ligand (log10).
A) 1.97

Q) Value lookup for normalized RNA/DNA level without ligand (log10); key = AAUUCA
A) 1.98
